- assay: detection-format interference in TR-FRET ratio – biochemical, artefact control for PPARgamma SRC-2 agonist project, primary screen (AID 1049)
- assay-context: TR-FRET artefact counter-screen; at 8 µM
Out of some 200,000 compounds screened, about 780 (0.39%) were called active. No stated cut-off is given here; in the data, active means TR-FRET ratio above about 2000; inactive means the rest. The entries come from a sample that favours actives as a whole.
Classes used: active, inactive

[
  {
    "compound": "O=C(NCc1ccco1)c1cc2sccc2n1Cc1ccc(F)cc1",
    "assigned-class": "inactive"
  },
  {
    "compound": "CCn1cc(C(=O)Nc2cc(C)ccc2C)c(=O)c2ccc(C)nc21",
    "assigned-class": "inactive"
  },
  {
    "compound": "O=C(c1cc2sccc2n1Cc1ccc(F)cc1)N1CCc2ccccc21",
    "assigned-class": "active"
  },
  {
    "compound": "CC1Cc2ccccc2N1C(=O)c1cc2sccc2n1Cc1ccccc1 (stereo unspecified)",
    "assigned-class": "active"
  },
  {
    "compound": "Cc1ccc(CN2CCN(Cc3ccc(OCCO)cc3)CC2CCO)o1 (stereo unspecified)",
    "assigned-class": "inactive"
  },
  {
    "compound": "CCOC(=O)c1cc2sccc2n1Cc1ccc(C#N)cc1",
    "assigned-class": "inactive"
  }
]
